TARGET OR TEST SYSTEM: Recombinant full length human OGA enzyme (Homo sapiens)
Construct: Recombinant full length human OGA enzyme was purchased from Origene
TEST DESCRIPTION: OGA Enzyme Inhibition Biochemical Assay
EXPERIMENTAL CONDITIONS: 1 nM OGA, 100 μM 4-MUGlcNAc (Km), pH 6.4, 90 minutes at room temperature; 10-point dose-response starting from 20 μM
Structures can show the parent of a compound that is named as a salt.
READOUT KIND: IC50 (nM)
Hi! Could you send only the number? It should be in nM, unit omitted.

Asked: // IC50 lookup, key: CC(=O)Nc1ncc(CN2CC(C)OC(Cc3ncc(F)cn3)C2)s1 (single isomer, unassigned) [Example 1-35 Peak 1]
Given back: 560

Asked: Endpoint output: IC50 of `CC(=O)Nc1ncc(CN2C[C@@H](Cc3ccc(C)nc3)OC[C@@H]2C)s1` . Value?
Given back: 31

Asked: Query (molecule): `CC(=O)Nc1ncc(CN2C[C@@H](Cc3cc(C)nc(C)c3)NC[C@@H]2C)s1` ; field requested: IC50
Given back: 9.1

Asked: If you can, please state the reported IC50 value of COc1cc(CC2COCCN(Cc3cnc(NC(C)=O)s3)C2)ccn1 (single isomer, unassigned) [Example 1-47 Peak 1] .
Given back: 1000

Asked: Consider the molecule `CC(=O)Nc1ncc(CN2CCO[C@H](Cc3cc(C)nc(C)c3)C2)s1` and give its measured IC50.
Given back: 38

Asked: Entry `COc1cc(C[C@@H]2CN(Cc3cnc(NC(C)=O)s3)[C@@H](C)CN2C)ccn1` : reported IC50 = ?
Given back: 4.9

Asked: Which measured IC50 value corresponds to CC(=O)Nc1ncc(CN2CCN[C@@H](Cc3cc(C)nc(C)c3)C2)s1 [Example 4-2, hydrochloride] ?
Given back: 350

Asked: Please report the recorded IC50 for `COc1cc(C[C@@H]2CN(Cc3cnc(NC(C)=O)s3)CCO2)ccc1F` .
Given back: 100

Asked: Using the record for `CC(=O)Nc1ncc(CN2CCO[C@H](Cc3ccnc(C(F)F)c3)C2)s1` , report its IC50.
Given back: 260

Asked: Give its IC50 value. Item: `CC(=O)Nc1ncc(CN2C[C@@H](Cc3ncc(F)cn3)N(C)C[C@@H]2C)s1`
Given back: 17

Asked: Form field: reported IC50 of `CC(=O)Nc1ncc(CN2CCO[C@H](Cc3ccnc(C)c3)C2)s1`
Given back: 84

Asked: For `COc1nccc(C[C@@H]2CN(Cc3cnc(NC(C)=O)s3)CCO2)c1F` , what is its reported IC50?
Given back: 56

Asked: Given `CC(=O)Nc1ncc(CN2C[C@@H](Cc3cc(C)nc(C)c3)OC[C@@H]2C)s1` , state its recorded IC50.
Given back: 9

Asked: What value of IC50 has been recorded for this entry: CC(=O)Nc1ncc(CN2CCOC(C(C)c3ncc(F)cn3)C2)s1 (single isomer, unassigned) [Example 1-25 Peak 4]
Given back: 1300

----------
Kindly supply the reported pIC50 values for the records listed here.
TARGET OR TEST SYSTEM: Recombinant full length human OGA enzyme (Homo sapiens)
Construct: Recombinant full length human OGA enzyme was purchased from Origene
Sequence (O60502 1-916): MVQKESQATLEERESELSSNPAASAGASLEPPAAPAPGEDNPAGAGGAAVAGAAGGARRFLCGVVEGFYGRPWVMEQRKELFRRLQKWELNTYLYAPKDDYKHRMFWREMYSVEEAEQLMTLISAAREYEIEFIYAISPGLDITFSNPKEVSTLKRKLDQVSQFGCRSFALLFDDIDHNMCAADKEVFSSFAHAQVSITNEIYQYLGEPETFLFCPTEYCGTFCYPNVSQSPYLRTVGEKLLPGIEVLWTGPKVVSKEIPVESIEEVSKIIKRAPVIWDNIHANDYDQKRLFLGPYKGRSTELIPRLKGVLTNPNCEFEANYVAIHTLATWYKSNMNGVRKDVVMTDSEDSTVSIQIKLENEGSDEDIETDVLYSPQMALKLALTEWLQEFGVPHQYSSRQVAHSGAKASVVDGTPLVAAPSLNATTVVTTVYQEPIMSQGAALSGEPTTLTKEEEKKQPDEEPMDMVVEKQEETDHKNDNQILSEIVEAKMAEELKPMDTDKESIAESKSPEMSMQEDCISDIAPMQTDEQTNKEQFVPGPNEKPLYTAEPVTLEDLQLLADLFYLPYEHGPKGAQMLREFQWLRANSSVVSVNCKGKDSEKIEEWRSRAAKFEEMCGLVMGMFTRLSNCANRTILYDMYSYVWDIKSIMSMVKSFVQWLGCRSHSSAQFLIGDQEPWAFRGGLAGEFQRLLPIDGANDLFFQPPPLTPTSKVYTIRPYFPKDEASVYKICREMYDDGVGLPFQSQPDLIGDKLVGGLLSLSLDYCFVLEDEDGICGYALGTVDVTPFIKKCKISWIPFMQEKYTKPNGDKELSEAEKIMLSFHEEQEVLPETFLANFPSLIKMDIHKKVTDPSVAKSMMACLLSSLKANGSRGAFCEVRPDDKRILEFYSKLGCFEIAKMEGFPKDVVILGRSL
TEST DESCRIPTION: OGA Enzyme Inhibition Biochemical Assay
EXPERIMENTAL CONDITIONS: 1 nM OGA, 100 μM 4-MUGlcNAc (Km), pH 6.4, 90 minutes at room temperature; 10-point dose-response starting from 20 μM
Quick note: pIC50 values are minus log10 of concentrations in mol/L.

Asked: Look up pIC50 with Recombinant full length human OGA enzyme (Homo sapiens) for this compound: `CC(=O)Nc1ncc(CN2CCO[C@H](Cc3ccc(C)nc3)C2)s1`
Given back: 6.96

Asked: Write down the reported pIC50 of CC(=O)Nc1ncc(CN2CCCNC(Cc3cc(C)nc(C)c3)C2)s1 (stereo not shown) , test system: Recombinant full length human OGA enzyme (Homo sapiens).
Given back: 4.92

Asked: // map `CC(=O)Nc1ncc(CN2C[C@@H](Cc3cc(C)nc(C)n3)N(C)C[C@@H]2C)s1` to recorded pIC50 (system: Recombinant full length human OGA enzyme (Homo sapiens))
Given back: 7.39

Asked: Fill in the recorded pIC50 for this compound, with Recombinant full length human OGA enzyme (Homo sapiens) as test system: CC(=O)Nc1ncc(CN2CCNC(Cc3ccc(C)nc3)C2)s1 (single isomer, unassigned) [Example 4-14 Peak 2]
Given back: 5.36
